Tested on: BT-549
test.name: NCI tumour cell line growth inhibition, 48 h
Counter-ions that a name gives are not always drawn. Activity calls are given as the source filed them. Cut-off read from the data, not from the text of the source: active = GI50 up to about 1.1 µM and inactive = higher.
Bench note: report the call from active, inactive

Give the logged outcome of this assay for the following compound: c1ccc(-c2ccc(/N=N/N3CCCC3)cc2)cc1
inactive

Query COc1ccc(-c2c(C#N)c(-c3ccc(C)cc3)n(NS(=O)(=O)c3ccc(C)cc3)c(=O)c2C#N)cc1 next
inactive

Query COc1ccc2c3c(ccc2c1)NC(C(=O)O)CC3 (configuration not stated) next
inactive

Query NCCCCN [PUTRESCINE HYDROCHLORIDE] next
inactive

Query Cc1cccc(C)c1NC(=O)/C(Cc1nc2ccc([N+](=O)[O-])cc2nc1O)=N\NC(N)=O next
inactive

Query CSC(=S)N/N=C(\C)c1cccc(C)n1 next
inactive

Query CCOC(=O)[C@]1(OC(C)=O)C[C@H](OC(C)=O)[C@@H](C(F)COP(=O)(OCc2ccccc2)OCc2ccccc2)O1 (some centres not stated) next
inactive

Query CC(NC1=CC(=O)c2cccnc2C1=O)C(O)c1ccccc1 (configuration not stated) next
inactive

Query CC1=C(C(=O)OC(C)C)C(c2cccc([N+](=O)[O-])c2)C(C(=O)OC(CO[N+](=O)[O-])CO[N+](=O)[O-])=C(C)N1 (configuration not stated) next
inactive

Query CN(NC(=O)CCCl)C1=NCCN1 next
inactive

Query C=CCOC1=C(OC(C)=O)C(=O)OC1C1COC(C)(C)O1 (configuration not stated) next
inactive

Query Cc1ccccc1N/C(=C(/C(Cl)=C(Cl)Cl)[N+](=O)[O-])n1nnc2ccccc21 next
inactive

Query Cc1cc(S(=O)(=O)Nc2nc(Nc3ccc4ccccc4c3)n[nH]2)c(S)cc1Cl next
inactive

Query CC(C)(C)c1cc(S(=O)(=O)O)c2oc(-c3ccccc3)cc(=O)c2c1 next
inactive

Query CCOc1c(OC)cc(CNNc2nccs2)cc1OC next
inactive

Query CNC(=O)OCc1cnc([N+](=O)[O-])n1C next
inactive

Query COc1cc([N+](=O)[O-])c(S(=O)(=O)O)cc1N next
inactive

Query O=C(Nc1ccc(Cl)cc1)c1cc2c(cc1Cl)SC(NNCCO)=NS2(=O)=O next
inactive

Query CCC1CCC2c3c([nH]c4ccc(C)cc34)C3C(=O)N(N(C)C)C(=O)C3C2C1 (configuration not stated) next
inactive

Query S=C(N/N=C(/c1ccccc1)c1ccccn1)N1CCCCCC1 next
active

Query O=C1Nc2cc(Cl)ccc2C(=O)N2CCC[C@@H]12 next
inactive

Query Nc1ccc(S(=O)(=O)c2ccc(NC(=O)c3cccnc3)cc2)cc1 next
inactive

* * *

Tested on: HOP-62
test.name: NCI tumour cell line growth inhibition, 48 h
The source made the active and inactive calls. No stated cut-off is given here; in the data, active = GI50 up to about 1.1 µM and inactive = higher.
Exercise: state measured GI50 for each of the compounds provided.

Could you tell me which GI50 is on file for O=c1cc(-c2ccccc2)oc2cc(OCCCOc3ccc4c(=O)cc(-c5ccccc5)oc4c3)ccc12 ?
> 100 µM (inactive)

Query O=C1c2c(O)cccc2C(C(=O)CCCCC(=O)C2c3cccc(O)c3C(=O)c3c(O)cccc32)c2cccc(O)c21 next
0.618 µM (active)

Query COc1cc(C2c3cc4c(cc3OC(NCc3ccccc3)C2C)OCO4)cc(OC)c1OC (centres undefined) next
0.553 µM (active)

Query BrC/C=C/C[P+](c1ccccc1)(c1ccccc1)c1ccccc1 next
19.6 µM (inactive)

Data origin: ChEMBL document CHEMBL1201862
